# system name: RORγ (UniProt P51449)
# Construct: hRORg-LBD|aa259-518|NP_005051.2; hRORgt|aa1-497|NP_001001523 (RORg, t isoform, 497aa); mRORg-LBD|aa264-516|NP_035411
# Sequence (P51449 1-518): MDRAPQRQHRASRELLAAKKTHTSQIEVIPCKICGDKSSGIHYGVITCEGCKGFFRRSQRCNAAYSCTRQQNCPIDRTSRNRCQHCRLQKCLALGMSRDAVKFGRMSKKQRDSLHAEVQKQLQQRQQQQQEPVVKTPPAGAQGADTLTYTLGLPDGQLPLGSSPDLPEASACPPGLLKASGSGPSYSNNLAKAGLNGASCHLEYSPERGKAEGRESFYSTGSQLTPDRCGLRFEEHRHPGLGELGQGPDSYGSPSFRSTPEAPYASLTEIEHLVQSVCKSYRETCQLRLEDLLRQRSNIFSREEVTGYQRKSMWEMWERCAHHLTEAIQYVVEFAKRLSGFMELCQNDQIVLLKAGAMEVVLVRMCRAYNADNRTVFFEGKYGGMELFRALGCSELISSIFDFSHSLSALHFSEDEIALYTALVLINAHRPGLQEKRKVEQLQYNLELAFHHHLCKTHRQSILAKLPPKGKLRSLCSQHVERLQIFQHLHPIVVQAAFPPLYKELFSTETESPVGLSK
# Format: cell-based
# applied conditions: renilla normalised (RENnorm) luciferase, 293T cells, 16 h
experimental endpoint: pIC50 (REN)
// response body must contain only the number

Solved entries:
[[record]]
compound = "Cc1c(C(=O)N[C@H]2C[C@H](C(=O)O)C2)cn(-c2cc(C(C)(C)C)cc(C3(C)CC3)c2)c1C(=O)c1ccccc1"
system_name = "RORγ (UniProt P51449)"
endpoint_result = 6.8

[[record]]
compound = "Cc1c(C(N)=O)cn(-c2cc(C(C)(C)C)cc(C(C)(C)C)c2)c1CC1CCCCC1"
system_name = "RORγ (UniProt P51449)"
endpoint_result = 6.3

[[record]]
compound = "Cc1c(C(=O)N[C@H]2C[C@H](C(=O)O)C2)cn(-c2cc(C(C)(C)C)cc(C3(C)CC3)c2)c1C(=O)N1CCCCC1"
system_name = "RORγ (UniProt P51449)"
endpoint_result = 6.8

[[record]]
compound = "Cn1c(C(=O)NC2CCOCC2)cc(-c2cc(C(C)(C)C)cc(C3(C)CC3)c2)c1CC1CCCCC1"
system_name = "RORγ (UniProt P51449)"
endpoint_result = 7.3

[[record]]
compound = "Cc1c(C(=O)N[C@H]2C[C@H](C(=O)O)C2)cn(-c2cc(C(C)(C)C)cc(C3(C)CC3)c2)c1[S+]([O-])C1CCCCC1 (some centres unmarked)"
system_name = "RORγ (UniProt P51449)"
endpoint_result = 7.1

[[record]]
compound = "Cc1c(C(=O)NCCC(C)(C)C(=O)O)c(F)n(-c2ccc(S(=O)(=O)NC(C)(C)C)c(C(F)(F)F)c2)c1CC1CCCCC1"
system_name = "RORγ (UniProt P51449)"
endpoint_result = 8.3


Q. Answer with the recorded pIC50 (REN) for the compound listed here: Cn1c(C(=O)NCC(C)(C)O)cc(-c2ccc(S(=O)(=O)NC(C)(C)C)c3ccccc23)c1C(=O)C1CCCCC1
A. 7.8

Q. Answer with the recorded pIC50 (REN) for the compound listed here: Cc1c(C(=O)NCCC(C)(C)C(=O)O)c(Cl)n(-c2ccc(S(=O)(=O)NC(C)(C)C)c(C(F)(F)F)c2)c1CC1CCCCC1
A. 8.4

Q. Answer with the recorded pIC50 (REN) for the compound listed here: CC(C)(C)c1cc(-c2nc(C(=O)NC3CC3)nn2CC2CCCCC2)cc(C(C)(C)C)c1O
A. 6.3

Q. Answer with the recorded pIC50 (REN) for the compound listed here: Cn1c(C(=O)NC23CCC(C(=O)O)(CC2)C3)cc(-c2cc(C(C)(C)C)cc(C3(C)CC3)c2)c1CC1CCCCC1
A. 7.8

Q. Answer with the recorded pIC50 (REN) for the compound listed here: CCS(=O)(=O)c1ccc(CNC(=O)c2cc(-c3ccc(S(=O)(=O)NC(C)(C)C)c(C(F)(F)F)c3)n(CC3CCCCC3)c2C)cc1
A. 7.8
